experiment: Cmax in BALB/c mouse brain at 2 mg/kg, iv; type: ADME, organism-based; design: dose 2 mg/kg, route intravenous
PROPERTY_MEASURED: Cmax (ng/g)
Please state the figure in ng/g; there is no need to write the unit.

So, "CNCCN(C)c1cc(C#N)cc(CCc2cc(C)cc(N)n2)c1" ? Its Cmax was 100
